# maps each entry to its Predicted Hepatic Clearance (Pred. Cl.)
Test: Microsomal stability, human liver microsomes (predicted hepatic clearance)
Conditions: predicted from in vitro microsomal stability data
readoutName: Predicted Hepatic Clearance (Pred. Cl.) (mL/min/kg)

{"smilesData": "N#CCC1(Cn2c(Cc3ccc(-c4cccc(OCc5ccc(C#N)cc5F)n4)cc3F)nc3c(F)cc(C(=O)O)cc32)CC1", "unitString": "mL/min/kg", "resultNumber": 5.33}
{"smilesData": "O=C(O)c1ccc2nc(Cc3cc(F)c(-c4cccc(OCc5ccc(C(F)(F)F)cc5F)n4)cc3F)n(C[C@@H]3CCO3)c2c1", "unitString": "mL/min/kg", "resultNumber": 1.83}
{"smilesData": "N#Cc1ccc(COc2cccc(-c3cc(=O)n(Cc4nc5ccc(C(=O)O)cc5n4CC45CC(CO4)C5)cc3F)n2)c(F)c1", "unitString": "mL/min/kg", "resultNumber": 6.5}
{"smilesData": "COCCn1c(Cc2cc(F)c(-c3ccc(F)c(OCc4ccc(C#N)cc4F)n3)cc2C)nc2ccc(C(=O)O)cc21", "unitString": "mL/min/kg", "resultNumber": 4.5}

----------
Target: GLP-1R (Homo sapiens, UniProt P43220)
Sequence (P43220 24-463): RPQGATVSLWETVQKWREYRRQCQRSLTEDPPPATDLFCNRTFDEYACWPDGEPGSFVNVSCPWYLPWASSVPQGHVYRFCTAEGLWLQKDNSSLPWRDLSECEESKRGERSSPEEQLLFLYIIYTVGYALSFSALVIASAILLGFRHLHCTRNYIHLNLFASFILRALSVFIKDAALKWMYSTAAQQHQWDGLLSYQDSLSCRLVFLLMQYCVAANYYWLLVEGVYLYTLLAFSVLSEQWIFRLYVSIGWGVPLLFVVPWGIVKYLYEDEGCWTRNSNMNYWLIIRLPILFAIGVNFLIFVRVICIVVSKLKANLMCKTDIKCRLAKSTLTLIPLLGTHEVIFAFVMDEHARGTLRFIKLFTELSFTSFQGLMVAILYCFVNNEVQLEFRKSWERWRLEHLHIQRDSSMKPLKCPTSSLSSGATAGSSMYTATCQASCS
Test: GLP-1R activation: cAMP increase in CHO cells stably expressing GLP-1R
Format: cell-based
Conditions: cAMP increase, CHO cells stably expressing GLP-1R, 10 point dose response, 30 minutes incubation; read-out: EC50
pEC50: −log10 of the molar value.

{"compound": "N#Cc1ccc(COc2ccc(F)c(-c3cc(F)c(Cc4nc5c(F)cc(C(=O)O)cc5n4CC45COC(C4)C5)cc3F)n2)c(F)c1", "target": "GLP-1R (Homo sapiens, UniProt P43220)", "pEC50": 8.48}
{"compound": "N#Cc1ccc(COc2cccc(-c3ccc(Cc4nc5ccc(C(=O)O)cc5n4CC4(C5CC5)CC4)c(F)c3)n2)c(F)c1", "target": "GLP-1R (Homo sapiens, UniProt P43220)", "pEC50": 8.50}
{"compound": "COCCn1c(Cc2ccc(-c3ccnc(OCc4ccc(C#N)cc4F)n3)c(F)c2)nc2c(F)cc(C(=O)O)cc21", "target": "GLP-1R (Homo sapiens, UniProt P43220)", "pEC50": 7.65}
{"compound": "O=C(O)c1cc(F)c2nc(Cc3ccc(-c4ccc(F)c(OCc5ccc(C(F)F)cc5F)n4)cc3F)n(CC34CC(CO3)C4)c2c1", "target": "GLP-1R (Homo sapiens, UniProt P43220)", "pEC50": 8.58}
{"compound": "COCC1(n2c(Cc3ccc(-c4cccc(OCc5ccc(C#N)cc5F)n4)cc3F)nc3ccc(C(=O)O)cc32)CC1", "target": "GLP-1R (Homo sapiens, UniProt P43220)", "pEC50": 7.96}
{"compound": "N#CCC1(Cn2c(Cc3ccc(-c4ccnc(OCc5ccc(C#N)cc5F)n4)c(F)c3)nc3ccc(C(=O)O)cc32)CC1", "target": "GLP-1R (Homo sapiens, UniProt P43220)", "pEC50": 8.64}
{"compound": "COCCn1c(C2OCCc3cc(-c4cccc(OCc5ccc(C#N)cc5F)n4)ccc32)nc2ccc(C(=O)O)cc21 (stereo not shown) [Example 37]", "target": "GLP-1R (Homo sapiens, UniProt P43220)", "pEC50": 6.03}

----------
Assay: Microsomal stability, human liver microsomes (predicted hepatic clearance)
Conditions: predicted from in vitro microsomal stability data
readoutName: Predicted Hepatic Clearance (Pred. Cl.)

{"compound": "COCCn1c(C2OCCc3cc(-c4cccc(OCc5ccc(C#N)cc5F)n4)ccc32)nc2ccc(C(=O)O)cc21 (stereo not drawn) [Example 37]", "result": "8.67 mL/min/kg"}
{"compound": "COC1(Cn2c(Cc3cc(F)c(-c4cccc(OCc5ccc(C#N)cc5F)n4)cc3F)nc3ccc(C(=O)O)cc32)CCC1 [Example 747]", "result": "7.33 mL/min/kg"}
{"compound": "N#CCC1(Cn2c(Cc3ccc(-c4ccnc(OCc5ccc(C#N)cc5F)n4)c(F)c3)nc3ccc(C(=O)O)cc32)CC1 [Example 281]", "result": "6.7 mL/min/kg"}
{"compound": "COCCn1c(Cc2cc(F)c(-c3cccc(OCc4ccc(C#N)cc4F)n3)cc2F)nc2cc(Cl)c(C(=O)O)cc21 [Example 837]", "result": "1.83 mL/min/kg"}
{"compound": "O=C(O)c1ccc2nc(Cc3cc(F)c(-c4cccc(OCc5ccc(C(F)F)cc5F)n4)cc3F)n(C[C@@H]3CCO3)c2c1 [Example 800]", "result": "1.83 mL/min/kg"}
{"compound": "COCCn1c(Cc2ccc(-c3ccc(F)c(OCc4ccc(C#N)cc4F)n3)c(F)c2)nc2ccc(C(=O)O)cc21 [Example 320]", "result": "4.17 mL/min/kg"}
{"compound": "CC(C)(C)OC(=O)N(CCn1c(Cc2cc(F)c(-c3cccc(OCc4ccc(C#N)cc4F)n3)cc2F)nc2ccc(C(=O)O)cc21)C1CC1 [Example 907]", "result": "8.5 mL/min/kg"}
{"compound": "COCCn1c(Cc2ccc(-c3cccc(OCc4ccc(C#N)cc4)n3)cc2F)nc2ccc(C(=O)O)cc21 [Example 499]", "result": "3.5 mL/min/kg"}
{"compound": "COCCn1c(Cc2ccc(-c3csc(OCc4ccc(C#N)cc4F)n3)cc2F)nc2ccc(C(=O)O)cc21 [Example 26]", "result": "4.67 mL/min/kg"}
{"compound": "COCCCn1c(Cc2ccc(-c3cccc(OCc4ccc(C#N)cc4F)n3)cc2F)nc2ccc(C(=O)O)cc21 [Example 390]", "result": "7.5 mL/min/kg"}
{"compound": "COCCn1c(Cc2cc(F)c(-c3cccc(OCc4ccc(C#N)nc4)n3)cc2F)nc2ccc(C(=O)O)cc21 [Example 820]", "result": "2.67 mL/min/kg"}
{"compound": "N#CCC1(Cn2c(Cc3c(F)cc(-c4ccnc(OCc5ccc(C#N)cc5F)n4)cc3F)nc3ccc(C(=O)O)cc32)CC1 [Example 399]", "result": "3.3 mL/min/kg"}
{"compound": "COCCn1c(Cc2ccc(-c3cccc(OCc4cccc(C(C)C)c4F)n3)cc2F)nc2ccc(C(=O)O)cc21 [Example 158]", "result": "3.83 mL/min/kg"}
{"compound": "COCCn1c(Cc2cc(F)c(-c3cccc(OCc4cc(Cl)ccc4F)n3)cc2F)nc2ccc(C(=O)O)cc21 [Example 660]", "result": "4.17 mL/min/kg"}
{"compound": "N#CCC1(Cn2c(Cn3ccc(-c4cccc(OCc5ccc(C#N)cc5F)n4)cc3=O)nc3ccc(C(=O)O)cc32)CC1 [Example 422]", "result": "2.67 mL/min/kg"}
{"compound": "N#Cc1ccc(COc2cccc(-c3cc(F)c(Cc4nc5c(F)cc(C(=O)O)cc5n4CC4(CF)CC4)cc3F)n2)c(F)c1 [Example 448]", "result": "<1.83 mL/min/kg"}
{"compound": "CCn1cnnc1Cn1c(Cc2ccc(-c3cccc(OCc4ccc(C#N)cc4F)n3)cc2F)nc2ccc(C(=O)O)cc21 [Example 404]", "result": "<1.83 mL/min/kg"}
{"compound": "COCCn1c(Cc2ccc(-c3cccc(OCc4c(F)cc(Cl)cc4OC)n3)cc2F)nc2ccc(C(=O)O)cc21 [Example 435]", "result": "6.17 mL/min/kg"}
{"compound": "COCCn1c(Cc2ccc(-c3cccc(OCc4ccc(C#N)cc4F)n3)cc2-c2cccc([N+](=O)[O-])c2)nc2ccc(C(=O)O)cc21 [Example 187]", "result": "14.8 mL/min/kg"}
{"compound": "COCCn1c(Cc2ccc(-c3cccc(OCc4ccc(C#N)cc4F)n3)c(F)c2)nc2ccc(C(=O)O)cc21 [Example 3]", "result": "3.83 mL/min/kg"}
{"compound": "N#Cc1ccc(COc2cccc(-c3cc(F)c(Cc4nc5ccc(C(=O)O)cc5n4[C@H]4COC[C@H]4O)cc3F)n2)c(F)c1 [Example 613]", "result": "6.5 mL/min/kg"}
{"compound": "Cc1nnc(Cn2c(Cc3cc(F)c(-c4cccc(OCc5ccc(C#N)cc5F)n4)cc3F)nc3ccc(C(=O)O)cc32)o1 [Example 748]", "result": "1.83 mL/min/kg"}
{"compound": "COCCn1c(Cc2ccc(-c3cccc(OCc4ccc(C(F)(F)F)nc4F)n3)cc2F)nc2ccc(C(=O)O)cc21 [Example 487]", "result": "5.33 mL/min/kg"}
{"compound": "CC(C)n1c(Cc2ccc(-c3cccc(OCc4ccc(C#N)cc4F)n3)cc2F)nc2ccc(C(=O)O)cc21 [Example 347]", "result": "5.5 mL/min/kg"}
{"compound": "COCCn1c(Cc2ccc(-c3cccc(OCc4cccc(OCC(F)F)c4)n3)cc2F)nc2ccc(C(=O)O)cc21 [Example 139]", "result": "7.17 mL/min/kg"}
{"compound": "N#CCC1(Cn2c(Cc3cc(F)c(-c4ccnc(OCc5ccc(Cl)cc5F)n4)cc3F)nc3ccc(C(=O)O)cc32)CC1 [Example 442]", "result": "3.67 mL/min/kg"}
{"compound": "N#Cc1ccc(COc2nccc(-c3ccc(Cc4nc5c(F)cc(C(=O)O)cc5n4CC4(CF)CC4)c(F)c3)n2)c(F)c1 [Example 360]", "result": "<1.83 mL/min/kg"}

Values from patent US11702404B2
